Test system: human hepatoma HepG2 cells
Assay: MTT cell viability assay, HepG2
Type: cell-based
Settings: 20 uM, 48 h, read-out: Cell viability as a percentage of the cells treated with DMSO, HepG2
Protocol: The MTT assay is a colorimetric assay for assessing cell metabolic activity. It is widely used in high-throughput screening of antitumor drugs due to its high sensitivity and economical features. In this example, MTT was used to detect the inhibitory effects of compounds on various cancer cell lines. […] 20 uM or 40 uM of compounds were administered to treat cells, cell viability is detected by MTT assay and expressed as a percentage of the cells treated with DMSO (Table 4).
Hi! Just check whether viability at 20 µM is below 90%. Below gives 1, equal or above gives -1.

query: Please determine if COc1cc(C(=O)O[C@H]2C[C@H]3CC[C@]2(C)C3(C)C)ccc1O [Tschimganine] is below 90% in terms of viability at 20 µM.
result: -1

query: Please determine if COc1cc(C(=O)OC2CC3CCC2(C)C3(C)C)ccc1F (stereo not drawn) [XD-3] is below 90% in terms of viability at 20 µM.
result: -1

query: Please determine if COc1cc(C(=O)OC2C/C(C)=C/CC/C(C)=C/[C@@H](O)[C@H]2C(C)C)ccc1O (stereo partly drawn) [Tschimganidine] is below 90% in terms of viability at 20 µM.
result: -1

query: Please determine if CC1(C)C2CCC1(C)C(OC(=O)c1ccc([N+](=O)[O-])cc1)C2 (stereo not drawn) [XD-14] is below 90% in terms of viability at 20 µM.
result: 1

query: Please determine if COc1cc(C(=O)OC2CCC3CCCCC3C2)ccc1O (stereo not drawn) [XD-30] is below 90% in terms of viability at 20 µM.
result: -1

query: Please determine if Cc1cc(C(=O)OC2CC3CCC2(C)C3(C)C)ccc1F (stereo not drawn) [XD-1] is below 90% in terms of viability at 20 µM.
result: -1

query: Please determine if Cc1cc(C(=O)OC2CCC3CCCCC3C2)ccc1N (stereo not drawn) [XD-31] is below 90% in terms of viability at 20 µM.
result: -1

query: Please determine if Cc1cc(C(=O)OC2CC3CCC2(C)C3(C)C)ccc1[N+](=O)[O-] (stereo not drawn) [XD-15] is below 90% in terms of viability at 20 µM.
result: 1

query: Please determine if O=C(OC1CCC2CCCCC2C1)c1ccc(O)cc1 (stereo not drawn) [XD-28] is below 90% in terms of viability at 20 µM.
result: -1

query: Please determine if Cc1cc(C(=O)OC2CCCCCCC2)ccc1O [XD-17, cyclooctyl 4-hydroxy-3-methylbenzoate] is below 90% in terms of viability at 20 µM.
result: 1

query: Please determine if Cc1cc(C(=O)OC2CCC3CCCCC3C2)ccc1F (stereo not drawn) [XD-34] is below 90% in terms of viability at 20 µM.
result: -1

query: Please determine if Cc1cc(C(=O)OC2CCC3CCCCC3C2)ccc1[N+](=O)[O-] (stereo not drawn) [XD-35] is below 90% in terms of viability at 20 µM.
result: -1

query: Please determine if COc1cc(C(=O)OC2CCCCCCC2)ccc1O [XD-18, cyclooctyl 4-hydroxy-3-methoxybenzoate] is below 90% in terms of viability at 20 µM.
result: -1

###

Target: full-length FXR (Homo sapiens, UniProt Q96RI1)
Construct: The cells were co-transfected with plasmids encoding full-length FXR and the cognate luciferase reporter EcRE-Luc; expressed in transfected cells; host or cells: COS-7
Sequence (Q96RI1 1-486): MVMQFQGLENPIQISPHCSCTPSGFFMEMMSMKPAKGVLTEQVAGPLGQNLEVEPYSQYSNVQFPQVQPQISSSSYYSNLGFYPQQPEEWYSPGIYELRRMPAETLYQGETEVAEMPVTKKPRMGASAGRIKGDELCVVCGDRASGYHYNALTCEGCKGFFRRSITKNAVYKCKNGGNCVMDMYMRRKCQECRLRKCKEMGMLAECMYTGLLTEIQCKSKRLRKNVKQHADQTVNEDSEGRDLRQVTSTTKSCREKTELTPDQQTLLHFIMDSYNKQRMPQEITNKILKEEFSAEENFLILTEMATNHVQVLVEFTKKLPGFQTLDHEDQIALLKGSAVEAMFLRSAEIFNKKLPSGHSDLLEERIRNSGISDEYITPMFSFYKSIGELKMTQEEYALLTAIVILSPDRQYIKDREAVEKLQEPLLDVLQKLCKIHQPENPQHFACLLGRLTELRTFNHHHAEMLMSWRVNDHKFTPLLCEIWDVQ
Test: Cell-based FXR transactivation, EcRE luciferase reporter in COS-7 cells
Conditions: 5 μM compound, positive: induction, minus: repression, Table 2
Please note: satisfied applies when Cell-based FXR transactivation Fold changes by 5 μM compound is 3 or greater, and not satisfied applies otherwise.

query: Please check the record Nc1ccc(C(=O)OC2CCC3CCCCC3C2)cc1 (stereo not shown) [XD-23] and state if its Cell-based FXR transactivation Fold changes by 5 μM compound is at or above 3.
result: not satisfied

query: Please check the record Cc1cc(C(=O)OC2CCC3CCCCC3C2)ccc1F (stereo not shown) [XD-34] and state if its Cell-based FXR transactivation Fold changes by 5 μM compound is at or above 3.
result: not satisfied

query: Please check the record O=C(OC1CCC2CCCCC2C1)c1ccc(F)cc1 (stereo not shown) [XD-33] and state if its Cell-based FXR transactivation Fold changes by 5 μM compound is at or above 3.
result: not satisfied

query: Please check the record CC1(C)C2CCC1(C)C(OC(=O)C1CCC(N)CC1)C2 (stereo not shown) [XD-21] and state if its Cell-based FXR transactivation Fold changes by 5 μM compound is at or above 3.
result: not satisfied

query: Please check the record O=C(OC1CC2CCC1C2)c1ccc([N+](=O)[O-])cc1 (stereo not shown) [XD-25] and state if its Cell-based FXR transactivation Fold changes by 5 μM compound is at or above 3.
result: not satisfied

query: Please check the record CC1(C)C2CCC1(C)C(OC(=O)c1ccc(=O)[nH]c1)C2 (stereo not shown) [XD-8] and state if its Cell-based FXR transactivation Fold changes by 5 μM compound is at or above 3.
result: satisfied

query: Please check the record O=C(OC1CCCCCCCCCCC1)c1ccc(O)cc1 [XD-11, cyclododecyl 4-hydroxybenzoate] and state if its Cell-based FXR transactivation Fold changes by 5 μM compound is at or above 3.
result: satisfied

query: Please check the record Cc1cc(C(=O)OC2CCC3CCCCC3C2)ccc1N (stereo not shown) [XD-31] and state if its Cell-based FXR transactivation Fold changes by 5 μM compound is at or above 3.
result: not satisfied

query: Please check the record Nc1ccc(C(=O)OC2CCCCCC2)cc1 [XD-12, cycloheptyl 4-aminobenzoate] and state if its Cell-based FXR transactivation Fold changes by 5 μM compound is at or above 3.
result: not satisfied

###

Please respond with reported viability at 20 µM for every item in the list.
system: human breast cancer MCF7 cells; assay: MTT cell viability assay, MCF-7; type: cell-based; conditions: 20 uM, 48 h, read-out: Cell viability as a percentage of the cells treated with DMSO, MCF-7
Field: numeric (%). Do not append units.

query: Tell me the measured viability at 20 µM of Cc1cc(C(=O)OC2CCC3CCCCC3C2)ccc1O (stereo not shown) , please.
result: 100

query: Tell me the measured viability at 20 µM of O=C(OC1CCCCCCC1)c1ccc(O)cc1 [XD-10, cyclooctyl 4-hydroxybenzoate] , please.
result: 93

query: Tell me the measured viability at 20 µM of COc1cc(C(=O)OC2CC3CCC2(C)C3(C)C)ccc1F (stereo not shown) , please.
result: 100

query: Tell me the measured viability at 20 µM of CC1(C)[C@@H]2CC[C@@]1(C)[C@@H](OC(=O)c1ccc(O)cc1)C2 , please.
result: 93

query: Tell me the measured viability at 20 µM of Nc1ccc(C(=O)OC2CCC3CCCCC3C2)cc1 (stereo not shown) , please.
result: 100

query: Tell me the measured viability at 20 µM of COc1cc(C(=O)OC2CCC3CCCCC3C2)ccc1[N+](=O)[O-] (stereo not shown) , please.
result: 100

query: Tell me the measured viability at 20 µM of CC1(C)C2CCC1(C)C(OC(=O)c1ccc(F)c(Br)c1)C2 (stereo not shown) , please.
result: 100

query: Tell me the measured viability at 20 µM of Cc1cc(C(=O)OC2CCC3CCCCC3C2)ccc1F (stereo not shown) , please.
result: 100

query: Tell me the measured viability at 20 µM of COc1cc(C(=O)OC2CCCCCCC2)ccc1O [XD-18, cyclooctyl 4-hydroxy-3-methoxybenzoate] , please.
result: 98

query: Tell me the measured viability at 20 µM of CC1(C)C2CCC1(C)C(OC(=O)c1ccncc1)C2 (stereo not shown) , please.
result: 100

query: Tell me the measured viability at 20 µM of Nc1ccc(C(=O)OC2CCCCCC2)cc1 [XD-12, cycloheptyl 4-aminobenzoate] , please.
result: 100

query: Tell me the measured viability at 20 µM of Cc1cc(C(=O)OC2CCCCCCC2)ccc1O [XD-17, cyclooctyl 4-hydroxy-3-methylbenzoate] , please.
result: 91

query: Tell me the measured viability at 20 µM of Nc1ccc(C(=O)OC2CC3CCC2C3)cc1 (stereo not shown) , please.
result: 100

query: Tell me the measured viability at 20 µM of COc1cc(C(=O)OC2CCC3CCCCC3C2)ccc1O (stereo not shown) , please.
result: 100

query: Tell me the measured viability at 20 µM of O=C(OC1CCC2CCCCC2C1)c1ccc(O)cc1 (stereo not shown) , please.
result: 100

query: Tell me the measured viability at 20 µM of O=C(OC1CC2CCC1C2)c1ccc([N+](=O)[O-])cc1 (stereo not shown) , please.
result: 100

query: Tell me the measured viability at 20 µM of Cc1cc(C(=O)OC2CC3CCC2(C)C3(C)C)ccc1N (stereo not shown) , please.
result: 100

query: Tell me the measured viability at 20 µM of COc1cc(C(=O)OC2C/C(C)=C/CC/C(C)=C/[C@@H](O)[C@H]2C(C)C)ccc1O (stereo partly shown) , please.
result: 100

query: Tell me the measured viability at 20 µM of Cc1cc(C(=O)OC2CC3CCC2(C)C3(C)C)ccc1F (stereo not shown) , please.
result: 100

query: Tell me the measured viability at 20 µM of CC1(C)C2CCC1(C)C(OC(=O)c1ccc([N+](=O)[O-])cc1)C2 (stereo not shown) , please.
result: 91

query: Tell me the measured viability at 20 µM of CC1(C)C2CCC1(C)C(OC(=O)c1ccc(=O)[nH]c1)C2 (stereo not shown) , please.
result: 94

query: Tell me the measured viability at 20 µM of CC1(C)C2CCC1(C)C(OC(=O)c1ccc(=O)oc1)C2 (stereo not shown) , please.
result: 72

query: Tell me the measured viability at 20 µM of CC1(C)C2CCC1(C)C(OC(=O)c1ccc(N)cc1)C2 (stereo not shown) , please.
result: 100

query: Tell me the measured viability at 20 µM of CC1(C)C2CCC1(C)C(OC(=O)c1ccc(F)cc1)C2 (stereo not shown) , please.
result: 100

query: Tell me the measured viability at 20 µM of COc1cc(C(=O)O[C@H]2C[C@H]3CC[C@]2(C)C3(C)C)ccc1O , please.
result: 100

query: Tell me the measured viability at 20 µM of O=C(OC1CCCCCCCCCCC1)c1ccc(O)cc1 [XD-11, cyclododecyl 4-hydroxybenzoate] , please.
result: 100

query: Tell me the measured viability at 20 µM of COc1cc(C(=O)OC2CCC3CCCCC3C2)ccc1N (stereo not shown) , please.
result: 100

query: Tell me the measured viability at 20 µM of Cc1cc(C(=O)OC2CC3CCC2(C)C3(C)C)ccc1[N+](=O)[O-] (stereo not shown) , please.
result: 81

query: Tell me the measured viability at 20 µM of Cc1cc(C(=O)OC2CCC3CCCCC3C2)ccc1[N+](=O)[O-] (stereo not shown) , please.
result: 100

query: Tell me the measured viability at 20 µM of O=C(OC1CCC2CCCCC2C1)c1ccc(F)cc1 (stereo not shown) , please.
result: 100

query: Tell me the measured viability at 20 µM of O=C(OC1CCC2CCCCC2C1)c1ccc([N+](=O)[O-])cc1 (stereo not shown) , please.
result: 100

query: Tell me the measured viability at 20 µM of C/C1=C\CCC(C)(O)/C=C/C(C(C)C)C(OC(=O)c2ccc(O)cc2)C1 (stereo not shown) , please.
result: 92

query: Tell me the measured viability at 20 µM of Cc1cc(C(=O)OC2CCC3CCCCC3C2)ccc1N (stereo not shown) , please.
result: 100

query: Tell me the measured viability at 20 µM of CC1(C)C2CCC1(C)C(OC(=O)C1CCC(O)CC1)C2 (stereo not shown) , please.
result: 85
